Test system: OVCAR-3 ovarian
Assay: NCI-60 one-dose screen, 48 h (100 = growth as untreated, 0 = no growth, -100 = all killed)
Settings: 10 µM unless noted
Compounds without any hit were thinned out: in the full panel of roughly 83,000, 20% have a hit.
Everything with growth lower than 70% is condition not met; everything else, including exactly 70%, is condition met.

> print(dat)
                                   compound              class
1  COc1cc2cc(Oc3ccc(NC(=O)Nc4ccccc4)cc3)c(C)nc2cc1OCCN1CCCCC1      condition met
2  CNC(=O)c1c(NC(=O)c2ccc(C(C)(C)C)cc2)sc2c(CN(C)C)c(O)ccc12  condition not met
3  Cc1nc2sc(C(=O)Nc3cccc(Cl)c3)c(N)c2cc1C(O)c1ccccc1 (stereo unspecified)  condition not met
4  O=C(CSc1nnc2sc(Nc3cccc(Cl)c3)nn12)c1ccc(F)cc1      condition met
5  O=C1Nc2ccc(F)cc2/C1=N/c1nnc(Sc2ccccc2)s1      condition met
6  CCOC(=O)c1c(-c2ccc(Cl)cc2)c(C#N)c2c(C#N)c(N)nn2c1N  condition not met

* * *

Test system: HT29 colon
Assay: NCI-60 one-dose screen, 48 h (100 = growth as untreated, 0 = no growth, -100 = all killed)
Settings: 10 µM unless noted
Protocol: Growth inhibition of the HT29 human tumor cell line is measured as a screen for anti-cancer activity. Cells are grown in 96 well plates and exposed to the test compound for 48 hours. Compounds are tested at a single concentration, which is 10^-5 M for most compounds. The reported endpoint is percent growth (GI% or GIPRCNT), where numbers from 0 - 100% represent growth inhibition, and numbers from -100% - 0 represent cell death. For example, a value of 40 represents 60% growth inhibition. […]
Compounds without any hit were thinned out: in the full panel of roughly 83,000, 20% have a hit.
The compounds listed here are annotated with their growth.

compound	measurementTarget	growth, %
Nc1c(C(=O)O)cc(Cl)cc1[N+](=O)[O-]	HT29 colon	97.7
COc1cc(/C=C2\CN(S(=O)(=O)c3ccc(C)cc3)C/C(=C\c3cc(CN4CCCCC4)c(O)c(OC)c3)C2=O)cc(CN2CCCCC2)c1O	HT29 colon	-66.5
CC(=O)N/C(=C1/OC(C(O)C(O)C(O)CO)CN1C)[P+](c1ccccc1)(c1ccccc1)c1ccccc1 (stereo not given)	HT29 colon	115
COc1cc2oc(-c3cccc(NC(=O)c4ccc5c(c4)OCO5)c3)cc(=O)c2c(OC)c1OC	HT29 colon	29.4
O=C1CCCc2nc3sc4c(=O)n(-c5ccccc5Cl)nnc4c3cc21	HT29 colon	77.5
CN1CCN(Cc2ccc(NC(=O)c3cncc(C#Cc4cncc5ncccc45)c3)cc2C(F)(F)F)CC1	HT29 colon	-4.72
CCNC(=O)Oc1ccc(/C(=C(/C)Cc2ccc(OC)cc2)c2ccc(OCCN3CCCC3)cc2)cc1	HT29 colon	7.46
Cn1cc(-c2nonc2-c2c[nH]c3ccccc23)c2ccccc21	HT29 colon	5.85
O=C1/C(=C/c2ccc(Br)cc2)COc2ccc(O)c(O)c21	HT29 colon	2.83
CCN1C(=O)N(CC)C2C1NN=C1SCC(=O)N12 (stereo not given)	HT29 colon	59.5
CCn1c2ccc(O)cc2c2c(C)c3c[n+](C(C)C)ccc3c(C)c21	HT29 colon	54.8
COC(=O)/C(CCC=C(C)C)=C1\[C@@H](OC(C)=O)C[C@@]2(C)[C@H]1CC(=O)[C@H]1[C@@]3(C)CCC(N4CCCC4)[C@@H](C)[C@@H]3CC[C@@]12C (stereo not given in full)	HT29 colon	68.2
Cc1ccc(C)c2c1C(O)(C#Cc1ccccc1)c1ccccc1C2(O)C#Cc1ccccc1 (stereo not given)	HT29 colon	38.9
COc1cc(C(=O)C(=O)c2cc(OC)c(O)c(OC)c2)cc(OC)c1O	HT29 colon	103
CCCCCCCCn1ccc2cc(NC(=O)Cn3cc(CN4CCCCCC4)nn3)ccc21	HT29 colon	-48.3
